Each entry below carries its recorded concentration at 2 day of withdrawal period.
experiment: Antimicrobial residue concentration and depletion in muscle of treated pigs within the withdrawal period (LC-MS/MS or HPLC-FLD); format: in vivo; settings: forequarter muscle, intramuscular; withdrawal period Day 2, pig; read-out: Concentration in Forequarters
quantity: concentration at 2 day of withdrawal period (ng/g)

smiles_data=COc1ccc(NS(=O)(=O)c2ccc(N)cc2)nn1 uom=ng/g test_value=311
smiles_data=CCN1CCN(c2cc3c(cc2F)c(=O)c(C(=O)O)cn3C2CC2)CC1 uom=ng/g test_value=374
smiles_data=CC1(C)S[C@@H]2[C@H](NC(=O)[C@H](N)c3ccc(O)cc3)C(=O)N2[C@H]1C(=O)O uom=ng/g test_value=20.7

* * *

assay: Antimicrobial residue concentration and depletion in muscle of treated pigs within the withdrawal period (LC-MS/MS or HPLC-FLD); format: in vivo; settings: loin muscle, intramuscular; withdrawal period Day 7, pig; read-out: Concentration in Loins
quantity: concentration at 7 day of withdrawal period (ng/g)

compound="CN(C)[C@@H]1C(O)=C(C(N)=O)C(=O)[C@@]2(O)C(O)=C3C(=O)c4c(O)cccc4[C@@](C)(O)[C@H]3[C@H](O)[C@@H]12 [Oxytetracycline, oxytetracycline]" uom=ng/g test_value=383
